Assay: Cmin in healthy human at […], po administered as single dose after 12 hrs in presence of […], po rifampin
Format: ADME, organism-based
Conditions: in vivo, read-out: Cmin
Quantity name: concentration at 12 h (µM)
One number for each entry, in µM.

INPUT: Which concentration at 12 h reading was recorded for the molecule Cc1nnc(C(=O)NC(C)(C)c2nc(C(=O)NCc3ccc(F)cc3)c(O)c(=O)n2C)o1 ?
OUTPUT: 0.0363

====

Assay: Terminal half life in healthy human at […], po administered as single dose in presence of […], po rifampin
Type: ADME, organism-based
Details: in vivo, read-out: beta t1/2 (converted)
Quantity name: half-life (h)
Numbers only, in h.

INPUT: Report half-life for Cc1nnc(C(=O)NC(C)(C)c2nc(C(=O)NCc3ccc(F)cc3)c(O)c(=O)n2C)o1 please.
OUTPUT: 9.6

The values you see were collected from ChEMBL document CHEMBL1649522.
